System: SBS#1140 ZFP (synthetic)
Assay: EMSA
Conditions: 100 mM KCl, 1 mM MgCl2, 100 uM ZnCl2, pH 7.5, RT
Measure: Kd

Could you share which Kd value was measured for AAGGGTGCG (double strand) [SBS#1140 target (-287)] ?
300 pM

---

Tested on: SBS#713 ZFP (synthetic)
Test: EMSA
Conditions: 100 mM KCl, 1 mM MgCl2, 100 uM ZnCl2, pH 7.5, RT
Measure: Kd (nM)
Just the number in nM, nothing appended.

Could you share which Kd value was measured for GGTGAGGAG (double strand) [SBS#713 target (-127)] ?
0.15

---

Test system: SBS#1764 ZFP (synthetic)
Assay: EMSA
Conditions: 100 mM KCl, 1 mM MgCl2, 100 uM ZnCl2, pH 7.5, RT
Measure: pKd
A value of pKd is the negative decimal logarithm of a concentration given in moles per litre.

Could you share which pKd value was measured for CAAGTGGGT (double strand) [SBS#1764 target (-286)] ?
9.96

---

Tested on: SBS#1756 ZFP (synthetic)
Experiment: EMSA
Settings: 100 mM KCl, 1 mM MgCl2, 100 uM ZnCl2, pH 7.5, RT
Measure: Kd (nM)
Just the number in nM, nothing appended.

Could you share which Kd value was measured for CGGGGAGGA (double strand) [SBS#1756/1770 target (-342)] ?
0.125

---

Tested on: SBS#1772 ZFP (synthetic)
Test: EMSA
Details: 100 mM KCl, 1 mM MgCl2, 100 uM ZnCl2, pH 7.5, RT
Measure: Kd (pM)
Just the number in pM, nothing appended.

Could you share which Kd value was measured for GTGGGTGAT (double strand) [SBS#1772 target (-277)] ?
6

---

System: SBS#1750 ZFP (synthetic)
Assay: EMSA
Conditions: 100 mM KCl, 1 mM MgCl2, 100 uM ZnCl2, pH 7.5, RT
Measure: Kd (nM)
Just the number in nM, nothing appended.

Report Kd for ATGGAGGGC (double strand) [SBS#1750 target (-147)] tested on SBS#1750 ZFP (synthetic).
0.011

---

System: SBS#779 ZFP (synthetic)
Test: EMSA
Conditions: 100 mM KCl, 1 mM MgCl2, 100 uM ZnCl2, pH 7.5, RT
Measure: pKd
A value of pKd is the negative decimal logarithm of a concentration given in moles per litre.

Could you share which pKd value was measured for CGGGGAGCA (double strand) [SBS#779 target (-356)] ?
9.30

---

Tested on: SBS#781 ZFP (synthetic)
Experiment: EMSA
Conditions: 100 mM KCl, 1 mM MgCl2, 100 uM ZnCl2, pH 7.5, RT
Measure: pKd
A value of pKd is the negative decimal logarithm of a concentration given in moles per litre.

Could you share which pKd value was measured for GGGGAGCAG (double strand) [SBS#781 target (-357)] ?
8.37

---

System: SBS#1755 ZFP (synthetic)
Assay: EMSA
Settings: 100 mM KCl, 1 mM MgCl2, 100 uM ZnCl2, pH 7.5, RT
Measure: pKd
A value of pKd is the negative decimal logarithm of a concentration given in moles per litre.

Could you share which pKd value was measured for CGGGAGGCC (double strand) [SBS#1755 target (-319)] ?
11.22

meta.source: patent US20040132033
